species: Rattus norvegicus; experiment: Evaluated for antiseizure activity in rat maximal electric shock (MES) seizure model and represented as ED50.; type: functional
# ED50 annotations

Please review the following examples before continuing.
C[C@H]1O[C@@H](n2cc(Br)c3c(N)ncnc32)[C@H](O)[C@@H]1O    < 3.7 mg/kg
Nc1ncnc2c1c(I)cn2[C@@H]1O[C@H](CO)[C@@H](O)[C@H]1O    6 mg/kg
NC[C@H]1O[C@@H](n2cc(Br)c3c(N)ncnc32)[C@H](O)[C@@H]1O    4.2 mg/kg
NC[C@H]1O[C@@H](n2cc(I)c3c(N)ncnc32)[C@H](O)[C@@H]1O    7.1 mg/kg

Now consider the entry below.
The reported ED50 of the compound C[C@H]1O[C@@H](n2cc(I)c3c(N)ncnc32)[C@H](O)[C@@H]1O was 0.3 mg/kg

---

Item-by-item account of IC50
molecular target: Adenosine kinase (Homo sapiens); assay: Inhibition of recombinant human adenosine kinase
Number in nM, nothing else.

CC[C@H]1O[C@@H](n2cc(I)c3c(N)ncnc32)[C@H](O)[C@@H]1O    60
CSc1cn([C@@H]2O[C@H](C)[C@@H](O)[C@H]2O)c2ncnc(Cl)c12    70

Entry C[C@H]1O[C@@H](n2cc(C#N)c3c(N)ncnc32)[C@H](O)[C@@H]1O ; IC50 = 310

Record CSc1cn([C@@H]2O[C@H](C)[C@@H](O)[C@H]2O)c2ncnc(N)c12 . Reported IC50: 1350

Record summary for NC[C@H]1O[C@@H](n2cc(Br)c3c(N)ncnc32)[C@H](O)[C@@H]1O : reported IC50 = 0.2

IC50 recorded for this compound, C[C@H]1O[C@@H](n2cc(I)c3c(=S)[nH]cnc32)[C@H](O)[C@@H]1O , is 6500

Input CC[C@H]1O[C@@H](n2cc(Br)c3c(N)ncnc32)[C@H](O)[C@@H]1O . Output IC50: 500

Given item N#Cc1cn([C@@H]2O[C@H](CO)[C@@H](O)[C@H]2O)c2ncnc(N)c12 , the value recorded as its IC50 is 310

Memo: C[C@H]1O[C@@H](n2cc(I)c3c(Cl)ncnc32)[C@H](O)[C@@H]1O , reported IC50: 3

In plain terms, C[C@H]1O[C@@H](n2cc(Br)c3c(Cl)ncnc32)[C@H](O)[C@@H]1O has a documented IC50 of 50

Lab note: NC[C@H]1O[C@@H](n2ccc3c(N)ncnc32)[C@H](O)[C@@H]1O gave IC50 of 13000

// IC50 value for [N-]=[N+]=NC[C@H]1O[C@@H](n2cc(Br)c3c(N)ncnc32)[C@H](O)[C@@H]1O : 63

---

target: Adenosine kinase (Homo sapiens, UniProt P55263); test: Inhibition of recombinant human adenosine kinase
Sequence (P55263 whole entry): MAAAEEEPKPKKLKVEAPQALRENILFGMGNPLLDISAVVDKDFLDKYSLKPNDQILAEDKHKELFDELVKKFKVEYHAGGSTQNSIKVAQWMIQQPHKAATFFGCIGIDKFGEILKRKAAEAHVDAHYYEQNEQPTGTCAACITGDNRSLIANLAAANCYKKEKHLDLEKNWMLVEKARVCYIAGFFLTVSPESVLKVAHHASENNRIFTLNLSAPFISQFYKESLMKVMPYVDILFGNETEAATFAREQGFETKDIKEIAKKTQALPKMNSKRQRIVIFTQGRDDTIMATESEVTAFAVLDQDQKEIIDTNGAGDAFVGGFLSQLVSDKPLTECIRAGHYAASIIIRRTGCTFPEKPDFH
Each item that follows carries a reported pIC50.
// pIC50: -log10(molar conc.)

Nc1ncnc2c1c(Cl)cn2[C@@H]1O[C@H](CO)[C@@H](O)[C@H]1O    6.68

pIC50 for NC[C@H]1O[C@@H](n2cc(I)c3c(N)ncnc32)[C@H](O)[C@@H]1O is 9.22

// field: pIC50; key: C=CCSc1ncnc2c1c(I)cn2[C@@H]1O[C@H](C)[C@@H](O)[C@H]1O ; value = 5.55

For this compound ( CCCCSc1ncnc2c1c(I)cn2[C@@H]1O[C@H](C)[C@@H](O)[C@H]1O ), measured pIC50 is 6.00

So, [N-]=[N+]=NC[C@H]1O[C@@H](n2cc(I)c3c(N)ncnc32)[C@H](O)[C@@H]1O ? Its pIC50 was 7.46

Reported pIC50 for OC[C@H]1O[C@@H](n2cc(I)c3c(Cl)ncnc32)[C@H](O)[C@@H]1O was 7.62

Please fill in: pIC50 reported for Nc1ncnc2c1ccn2[C@@H]1O[C@H](CO)[C@@H](O)[C@H]1O = 5.00

pIC50 measured on C[C@H]1O[C@@H](n2cc(I)c3c(SCc4ccccc4)ncnc32)[C@H](O)[C@@H]1O = 6.00

---

biological target: Adenosine kinase (Homo sapiens, UniProt P55263); assay: Inhibition of recombinant human adenosine kinase
Readout Label: IC50 (nM)
Give the number; nM is assumed, so skip it.

COC[C@H]1O[C@@H](n2cc(I)c3c(N)ncnc32)[C@H](O)[C@@H]1O    1200
CSc1ncnc2c1c(I)cn2[C@@H]1O[C@H](C)[C@@H](O)[C@H]1O    45
Nc1ncnc2c1c(Br)cn2[C@@H]1O[C@H](CO)[C@@H](O)[C@H]1O    120
NC[C@H]1O[C@@H](n2cc(I)c3c(Cl)ncnc32)[C@H](O)[C@@H]1O    0.1
[N-]=[N+]=NC[C@H]1O[C@@H](n2cc(Br)c3c(Cl)ncnc32)[C@H](O)[C@@H]1O    100

Next up:
Reported IC50 ( [N-]=[N+]=NC[C@H]1O[C@@H](n2cc(I)c3c(Cl)ncnc32)[C@H](O)[C@@H]1O ) = 9

---

target: Adenosine kinase (Homo sapiens); assay: Inhibition of recombinant human adenosine kinase
Threshold 500 nM. IC50 below it: T. IC50 at it or above: F.

Below, 4 compounds whose answers are already recorded.
CNc1ncnc2c1c(I)cn2[C@@H]1O[C@H](CO)[C@@H](O)[C@H]1O    F
C[C@H]1O[C@@H](n2cc(I)c3c(SCc4ccc([N+](=O)[O-])cc4)ncnc32)[C@H](O)[C@@H]1O    F
NC[C@H]1O[C@@H](n2cnc3c(N)ncnc32)[C@H](O)[C@@H]1O    T
C=C[C@H]1O[C@@H](n2cc(I)c3c(N)ncnc32)[C@H](O)[C@@H]1O    T

Field: next compound
Exercise: A record lists Cc1cn([C@@H]2O[C@H](C)[C@@H](O)[C@H]2O)c2ncnc(Cl)c12 . Is its IC50 below 500 nM?
Key: F
